target: mouse eIF4E-1 (Mus musculus); construct: N-terminal GST tag, E. coli, GST-fusion dimer, tag kept; assay: SPR, Biacore T-200, kinetic fit; type: binding
Sequence (P63073 2-217): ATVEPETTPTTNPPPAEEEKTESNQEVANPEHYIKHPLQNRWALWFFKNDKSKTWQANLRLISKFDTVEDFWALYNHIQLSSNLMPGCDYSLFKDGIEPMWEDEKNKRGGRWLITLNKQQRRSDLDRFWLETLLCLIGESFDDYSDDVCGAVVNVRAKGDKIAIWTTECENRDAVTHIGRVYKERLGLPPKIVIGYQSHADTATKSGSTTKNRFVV
Property name: pKd
One number for each entry, as −log10 of the molar value.

What pKd value was documented for this compound, C[n+]1cn([C@@H]2O[C@H](COP(=O)(O)OP(=O)(O)OP(=O)(O)OC[C@H]3O[C@@H](n4ccc(N)nc4=O)[C@H](O)[C@@H]3O)[C@@H](O)[C@H]2O)c2nc(N)[nH]c(=O)c21 ?
4.16
